Target: human BTLA expressed on cells (human, UniProt Q7Z6A9 31-289)
Experiment: cell-based or functional assay
ASSAY ENDPOINT: EC50 (luciferase reporter, T cell activation)

humanized antibody hu19 (antibody, V domains shown, It was detected with an anti-human IgG4 secondary antibody) VH: QVQLVQSGAEVKKPGASVKLSCKASGYNFKHTYAHWVRQAPGQGLEWIGRIDPANGNTKYDPKFQGRATMTADTASNTAYLELSSLRSEDTAVYYCVADHYGSSLLDYWGQGTLVTVSS VL: DIVMTQTPLSLSVTPGQPASISCKSSQSLLDSDGKTYLNWFQQRPGQSPRRLMHLVSKLDSGVPDRFSGSGSGTDFTLKISRVEAEDVGVYYCWQGTYFPYTFGQGTKLEIK :: 0.29 µg/mL
